- procedureSummary: amyloid nucleation score (Sup35N fusion, yeast selection) (log enrichment); library NNK2; higher = more nucleation; inactive = no reads after selection;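 further: zero at mode of non-aggregating sequences after 7 days selection at 30°C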
Mark NOT MET for amyloid nucleation score values under -0.4, and MET for everything at or above.

1) NFVSISMGNIYMSQLGRWTA ... MET
2) CCSIVSTYRKYLVNRTRWIF ... NOT MET
3) IMYPLRNLAQDFLGDSVSYL ... NOT MET
4) LDINIFM ... MET
5) PDVPIFCPYAAAMKVAVCYR ... NOT MET
6) NRTSYQNLIDNATTVSIMF ... MET
7) EACLNGAA ... MET
8) HLWVWFRYSSRSFSHMLGDC ... MET
9) HHWRGALGFVCWGRFEERWV ... NOT MET
10) IVLRFFGFMDHSSYRNLFKE ... MET
11) ANTCVPPLLRMFPLRGRTHI ... MET
12) DNKRWLRIWMKFLKGDMHGL ... MET
13) DRPVCMYNMF ... MET

Every entry's value here was drawn from the supplement of paper PMC12042874.
